Assay: self-splicing fitness, log relative to wild type (ln ratio); higher = more splicing; Tetrahymena group I intron in knt gene, E. coli kanamycin selection, DiMSum; sequences stand for … in CUCUCU…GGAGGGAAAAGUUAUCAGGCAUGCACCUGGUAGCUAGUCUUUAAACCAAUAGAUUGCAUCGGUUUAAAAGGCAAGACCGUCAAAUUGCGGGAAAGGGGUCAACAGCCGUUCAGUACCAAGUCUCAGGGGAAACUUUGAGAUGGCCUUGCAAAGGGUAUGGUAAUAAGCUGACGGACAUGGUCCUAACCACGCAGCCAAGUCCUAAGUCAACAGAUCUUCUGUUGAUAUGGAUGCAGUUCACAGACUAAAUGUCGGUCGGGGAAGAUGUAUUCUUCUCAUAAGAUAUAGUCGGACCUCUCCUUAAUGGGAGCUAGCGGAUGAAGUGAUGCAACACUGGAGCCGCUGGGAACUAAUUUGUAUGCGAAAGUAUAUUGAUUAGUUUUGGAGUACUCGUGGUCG;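 further: selection with 25 µg/mL kanamycin versus none on LB agar overnight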
Settings: 37 °C
quantity_name: self-splicing fitness (ln)

> print(dat)
                    seq               quantity.name  observed.result
1  UGAAAGCAAUAUUACGAGCA  self-splicing fitness (ln)            0.406
2  ACGCAGCAAUAUUACGAGAA  self-splicing fitness (ln)            -2.83
3  CAUUAGCAAUAUUACGACAG  self-splicing fitness (ln)            0.168
4  AGAUAGCAAUAUUACGCCUC  self-splicing fitness (ln)            -2.26
5  CCCUAGCAAUAUUACGUCAU  self-splicing fitness (ln)            -3.11
6  CCGCAGCAAUAUUACGUGGA  self-splicing fitness (ln)            -2.43
7  GGGCAGCAAUAUUACGUGGU  self-splicing fitness (ln)            -1.58
8  UCUCAGCAAUAUUACGUUUA  self-splicing fitness (ln)            -1.08
